Experiment: qHTS of pediatric cancer cell lines to identify multiple opportunities for drug repurposing: Primary screen for SK-N-MC cells (AID 1347093)
Conditions: SK-N-MC viability, CellTiter-Glo luminescence, 48 h; series mostly up to 46 µM
Results filed as inconclusive are left out. Active and inactive are the calls of the source. Calls follow the shape of the dose curve; as a rule, active = well fitted cell-killing curve with a large enough effect; inconclusive = small, poorly fitted or top-dose-only effect; inactive = no such curve, though single readings can be large or run the other way.
Outcome codes: active, inactive

molecule | answer.label
CC(=O)O[C@@H]1C(=O)O[C@@H]2[C@H]1OC(=O)[C@@H]2OC(C)=O | active
CCOC(=O)C(=O)c1csc(NC=O)n1 | inactive
Cc1cccc(C)c1NC(=O)c1cc(S(N)(=O)=O)c(Cl)cc1O | inactive
O=C(O)/C=C(\CC(=O)O)C(=O)O | inactive
CC(=O)N(c1onc(C)c1C)S(=O)(=O)c1ccc(N)cc1 | inactive
CCCCOC(=O)CCCCCCCCC(=O)OCCCC | inactive
CC(=O)c1ccc(O)c(C(N)=O)c1 | inactive
O=C1CCCc2c(O)cccc21 | inactive
CC(C)(C)C1CCC(CC2=C(O)c3ccccc3C(=O)C2=O)CC1 (configuration not stated) | active
CC(C)(C)C(O)/C=C/c1ccc2c(c1)OCO2 (configuration not stated) | inactive
CCOC(=O)OCC/C(SC(=O)OCC)=C(\C)N(C=O)Cc1cnc(C)nc1N | inactive
CC1c2ccccc2CN1NC(=O)c1ccc(Cl)c(S(N)(=O)=O)c1 (configuration not stated) | inactive
CCN(CC)CCN | inactive
CN1Cc2cc(C(=O)N3CCC(C4CCNCC4)CC3)ccc2N[C@@H](CC(=O)O)C1=O | inactive
CC(C)(C)c1nnc(NS(=O)(=O)c2ccccc2)s1 | inactive
C[C@H](CN1CCCC1)C(=O)c1ccc(C(F)(F)F)cc1 | inactive
CCCCCC[C@@H](CCC)C(=O)O | inactive
NC(=O)NC1N=C([O][Al])NC1=O (configuration not stated) | inactive
C=C(C)C(=O)OCC(O)CO (configuration not stated) | inactive
Cc1onc(-c2c(Cl)cccc2Cl)c1C(=O)Cl | inactive
CCCC(=O)O[C@]1(C(=O)COC(=O)CC)CC[C@H]2[C@@H]3CCC4=CC(=O)CC[C@]4(C)[C@H]3[C@@H](O)C[C@@]21C | inactive
N#CSCC(=O)O | inactive
Cc1ccc(C(C)OC(=O)C2(C)CCC(C(=O)O)C2(C)C)cc1 (configuration not stated) | inactive
O=C1CC2(CCCC2)CC(=O)N1 | inactive
OC[C@]1(O)OC[C@@H](O)[C@H](O)[C@@H]1O | inactive
CCCC(=O)Nc1ccc(O)c(C(C)=O)c1 | inactive
Cc1cccc(C)c1NC(=O)c1ccc(N)cc1 | inactive
CC(C)(C)c1ccc(C(=O)CCCCl)cc1 | inactive
OCCc1ccccc1 | inactive
Cn1cc(S(C)=O)c(=O)c2ccc(F)cc21 (configuration not stated) | inactive
CN1CCC(N(Cc2cccs2)c2ccccc2)CC1 | active
COc1ccc2c(c1)c(CC(=O)OC/C=C(\C)CC/C=C(\C)CCC=C(C)C)c(C)n2C(=O)c1ccc(Cl)cc1 | inactive
O=C(Nc1ccc(S(=O)(=O)N2CCOCC2)cc1)c1cc(Cl)ccc1NS(=O)(=O)c1ccc(Cl)s1 | active
Cc1ccc2ccc(Cl)cc2n1 | inactive
Fc1ccc(C(c2ccc(F)cc2)N2CCNCC2)cc1 | inactive
Cc1c(F)cc2c(=O)c(C(=O)O)cn3c2c1CCC3C (configuration not stated) | inactive
C#Cc1ccc(-c2ccccc2F)cc1 | inactive
CC(=O)N(CC(=O)N(C)C)c1ccccc1 | inactive
CO[C@@H]1[C@@H](OC)[C@H](C)[C@@](O)(CC(=O)O)O[C@H]1[C@H](C)[C@H]1O[C@@]2(CC[C@@](C)([C@H]3CC[C@@](C)([C@@H]4O[C@@H]([C@H]5O[C@](C)(O)[C@H](C)C[C@@H]5C)C[C@@H]4OC4C[C@H](OC)[C@@H](OC)[C@H](C)O4)O3)O2)C[C@H](O)[C@H]1C (some centres not stated) | active
Nc1cccc2c(N)cccc12 | active
O=C1[C@@H]2[C@H]3CC[C@H](C3)[C@@H]2C(=O)N1CCCCN1CCN(c2ncccn2)CC1 | inactive
O=C(Nc1ccc(Cl)cc1)Nc1ccc(Cl)c(Cl)c1 | active
O=C(CS(=O)Cc1ccco1)NC/C=C\COc1cc(CN2CCCCC2)ccn1 (configuration not stated) | inactive
O=C1NC2CCCCN2C12CCN(CCCN1c3ccccc3CCc3ccc(Cl)cc31)CC2 (configuration not stated) | active
O=C1c2ccccc2CCc2ccccc21 | inactive
CC(=O)OCC(=O)Nc1cc(C#N)cc(NC(=O)COC(C)=O)c1Cl | inactive
c1ccc2c(c1)CCc1ccccc1N2 | inactive
